All values here come from the NIST ThermoML archive (doi:10.1021/je060096y).

# Conditions: Crystal; DTA
Measured quantity: Normal melting temperature (°C)

Compound	Measurement units	Result number
CCCC[n+]1ccc(C)cc1.O=S(=O)([N-]S(=O)(=O)C(F)(F)F)C(F)(F)F	°C	10.00
CCCCCCCCn1cc[n+](C)c1.N#C[N-]C#N [3-methyl-1-octylimidazolium dicyanamide]	°C	-5.00
CCCC[n+]1ccc(C)cc1.O=S(=O)([O-])C(F)(F)F [1-butyl-4-methylpyridinium trifluoromethanesulfonate]	°C	38.00
CCCCCCCCn1cc[n+](C)c1.O=S(=O)([O-])C(F)(F)F [1-octyl-3-methylimidazolium trifluoromethanesulfonate]	°C	5.00
CCCCn1cc[n+](C)c1.O=S(=O)([O-])C(F)(F)F [1-butyl-3-methylimidazolium trifluoromethanesulfonate]	°C	15.00
CCCC[n+]1ccc(C)cc1.O=S(=O)([O-])C(F)(F)C(F)(F)C(F)(F)C(F)(F)F	°C	70.00
CCCC[n+]1ccn(C)c1.O=S(=O)([N-]S(=O)(=O)C(F)(F)F)C(F)(F)F	°C	-4.00
CCCCCCCCn1cc[n+](C)c1.O=S(=O)([O-])C(F)(F)C(F)(F)C(F)(F)C(F)(F)F [1-methyl-3-octylimidazolium perfluorobutanesulfonate]	°C	32.00
